Reference source for all entries: the supplement of paper PMC9170038

tested on: MS2 coat protein; experiment: apparent KD of MS2 coat protein; higher = weaker reporter binding; settings: Eterna round: R107; input ligand: tryptophan 2.4 mM
measured_metric: apparent KD of MS2 coat protein (nM)
Give the value, in units of nM, as a plain number.

The following sequences have reported results that may help.
AUACAUGAGGAUCACCCAUGUCAUUCAGAAGGAGCGUCAUUUUAGACAGGUAGGUCGCUGAUAGUAUUUUUAUACUUUAUGUUUA [JR_SSArginiA_Sub015]: 21.6
AGCUCGCAUCCUCUAGCGUCAAAGACGCGUCGAGGACCGGUACGGCCGCCACUCGACUUGAGGAACACCCAAGUCCUAGCGAGCA [TrypAX 12 #SwitchBubble #AlternativeMS2 #MS2Late #CuTurnoff]: 290

Request: Given the entry GGUCUCUGGAGCGAUACCAGCUUGAGUGUACUGGCCAGGUACAUGAGGAUCACCCAUGUAAGCCCUUGGCAGCGCUCCAGAGACC [#1 Exclusion - Theophylline B Attempt #15 (HarryS)] , report its measured apparent KD of MS2 coat protein.
Result: 11

Request: Requested field: apparent KD of MS2 coat protein. Item: AAAGUUGAUGAGUUGUGUUUGUGUUCGGAAGGAGCGGGAAUUAUCUCAGGUAGGUCGCCGAACAUGAGGAUCACCCAUGUAUAAA [XArg-A 18 NuV2 original #dotplot2>1]
Result: 82.6

###

tested on: K4 kissing-loop RNA reporter; assay: apparent KD of K4 kissing-loop reporter; higher = weaker reporter binding; details: Eterna round: R107; input ligand: none
Attribute: apparent KD of K4 kissing-loop reporter
Return type: number; implicit unit nM.

Here's what some known entries look like.
GCCAUCUACUAAGGAUAUUAAGUCAAUAUUUGUGGUGCCAUCUGUCGUUCAGGGCAGUGAUGUUGCUAAGAAGGUAGUCUGUCGG [theeternabot_exclusion_KL_FMN_B_39]: 636
GUGAAGGAGCUGCAGUGAUGUUGCAGAGACUAGGAUAUCAGGAAACUGAGAAGGAGUCAACUCCUUCACCUAGACAACAUCACUA [[F]''-[K1]-[K2]-[F1]-[F2]-[F2]'-[F1]'-[K]'_Design2]: 128

Request: What value of apparent KD of K4 kissing-loop reporter has been reported for the following sequence? GGUUAAAGCACCCGGAGUGAUGUUCCGGAUACCAGCAAACCAACUUGCCCUUGGCAGCCGUAUAGCGUCCGGUGGGCCGAGCAUA [Raarce]
Result: 98.4

###

Below is a list of entries, each paired with its recorded apparent KD of K4 kissing-loop reporter value.
test system: K4 kissing-loop RNA reporter; assay: apparent KD of K4 kissing-loop reporter; higher = weaker reporter binding; settings: Eterna round: R107; input ligand: theophylline 20 uM;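 further: bound reporter read as fluorescence of individual clusters on recovered sequencing chips by microscopy, with normalized cluster intensities fitted with a binding model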
Report the figure in nM without appending any unit label.

Known apparent KD of K4 kissing-loop reporter results, listed for orientation:
UUUUGGUUCUGAGGAUAUUCGAAGAAAUAUAGUGAUGUUAUAUAAGGAGGAGGAUGGAGGGAGGAAGGAGAAGGCAGAAGAGGAG [ExFMNB.I]: 923
AAGGUUCGUGGAAGGAGCGCCCGUGCGACUCGUUCACUAAGUGAAGUCCGAGUGAUGUUCGGGCAGGUAGGUCGCCACGGGCAAA [Atonenge]: 153

Consider now this further sequence.
Request: What value of apparent KD of K4 kissing-loop reporter has been reported for the following sequence? "GCUACUGCUGAAGGAUAUAUCAAUAGAGUGAUGUUCUAUGUCGGUAGCCCGAAAGGGCUACCGACGAUAGAAGGUCAGCAGUAGC"
Result: 1070
